tested on: OVCAR-8 ovarian; experiment: NCI tumour cell line growth inhibition, 48 h
OBSERVED PROPERTY: TGI

Solved cases below.
COMPOUND: CCOC(=O)C1=C(C(=O)OCC)C2(c3ccccc3)N(O1)c1ccccc1C2(C)C (stereo not given)
TGT: OVCAR-8 ovarian
TGI: > 100 µM

COMPOUND: N#Cc1c(-c2ccc([N+](=O)[O-])cc2)cc(-c2ccc(Nc3ccnc4cc(Cl)ccc34)cc2)nc1N
TGT: OVCAR-8 ovarian
TGI: > 23.3 µM

Exam item: For Cc1cc2c(cc1CO)N1Cc3cc(C)c(CO)cc3N(C2)C1 , what is its reported TGI?
Marked response: > 100 µM

Exam item: For CCOC(=O)C1(C(=O)OCC)C=C(c2ccccc2)N(C2OC(COC(C)=O)C(OC(C)=O)C(OC(C)=O)C2OC(C)=O)C1=S (stereo not given) , what is its reported TGI?
Marked response: > 100 µM
